experimentalProtocol: patients with anti-drug antibodies; higher = more immunogenic
property: patients with anti-drug antibodies (%)

>>> quantitativereadout("unnamed (protein) chain 1: QVQLVQSGAELKKPGSSVKVSCKASGYIFTSSWINWVKQAPGQGLEWIGRIDPSDGEVHYNQDFKDKATLTVDKSTNTAYMELSSLRSEDTAVYYCARGFLPWFADWGQGTLVTVSS chain 2: DIQMTQSPSTLSASVGDRVTITCKASENVDTYVSWYQQKPGKAPKLLIYGASNRYTGVPSRFSGSGSGTDFTLTISSLQPDDFATYYCGQSYNYPFTFGQGTKVEVK")
7.8
>>> quantitativereadout("unnamed (protein) chain 1: QMQLVESGGGVVQPGRSLRLSCAASGFTFRTYGMHWVRQAPGKGLEWVAVIWYDGSNKHYADSVKGRFTITRDNSKNTLNLQMNSLRAEDTAVYYCARAPQWELVHEAFDIWGQGTMVTVSS chain 2: SYVLTQPPSVSVAPGQTARITCGGNNLGSKSVHWYQQKPGQAPVLVVYDDSDRPSWIPERFSGSNSGNTATLTISRGEAGDEADYYCQVWDSSSDHVVFGGGTKLTVL")
2.1
>>> quantitativereadout("unnamed (protein) chain 1: QVQLVESGGGVVQPGRSLRLSCAASGFTFSSYGMHWVRQAPGKGLEWVAVISYEESNRYHADSVKGRFTISRDNSKITLYLQMNSLRTEDTAVYYCARDGGIAAPGPDYWGQGTLVTVSS chain 2: DIVMTQSPLSLTVTPGEPASISCRSSQSLLYSNGYNYLDWYLQKPGQSPQVLISLGSNRASGVPDRFSGSGSGTDFTLKISRVEAEDVGVYYCMQARQTPFTFGPGTKVDIR")
1.8
